All values here come from patent US5424204A.

# Tested on: glucose 6-phosphate dehydrogenase
# assay-procedure: Stabilization of glucose 6-phosphate dehydrogenase in a reagent for measuring the activity of creatine kinase (residual activity after storage)
# Assay type: biochemical
# condition-set: 10 mM additive in reagent solution 1 (pH 6.6), stored at 10° C. for 3 months; activity immediately after preparation = 100%

# molecule, u, Residual activity after 3 months (%)
data = [
    ("NNC(=O)c1ccccc1 [II-1, benzoylhydrazine]", "%", 100.1),
    ("CCOC(=O)NN [II-12, ethyl carbazate]", "%", 102.2),
    ("Br.NNC1=NCCN1 [II-6, 2-hydrazino-2-imidazoline hydrobromide]", "%", 89.2),
    ("CC(C)=NNC(N)=S [II-16, acetone thiosemicarbazone]", "%", 79.8),
    ("NO.NO.O=S(=O)(O)O [Compound I-2, hydroxylamine sulfate]", "%", 99.8),
    ("NC(=S)C(N)=S [II-17, dithiooxyamide]", "%", 75.2),
]
